- TARGET SYSTEM: m7GpppX diphosphatase (Homo sapiens)
- Sequence (Q96C86 whole entry): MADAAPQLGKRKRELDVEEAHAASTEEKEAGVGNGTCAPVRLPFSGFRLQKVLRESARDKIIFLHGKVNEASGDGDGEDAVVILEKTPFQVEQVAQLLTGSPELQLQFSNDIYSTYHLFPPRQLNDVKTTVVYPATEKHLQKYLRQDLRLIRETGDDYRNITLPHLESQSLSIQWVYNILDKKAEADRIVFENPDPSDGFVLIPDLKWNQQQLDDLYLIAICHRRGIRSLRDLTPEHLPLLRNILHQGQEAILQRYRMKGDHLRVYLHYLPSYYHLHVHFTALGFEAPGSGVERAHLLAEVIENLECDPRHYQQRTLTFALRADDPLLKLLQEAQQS
- EXPERIMENTAL DETAILS: Biochemical Assay
pEC50: −log10 of the molar value.
REPORTED ENDPOINT: pEC50

COMPOUND: Nc1nc(N)c2c(OCC3CCN(CC4CCNCC4)CC3)cccc2n1 [D157554]
pEC50: 6.04

a. Nc1nc(N)c2c(OCC3CCN(c4ccccc4Cl)CC3)cccc2n1 [D158885]
b. CC(=O)Nc1nc(CN2CCC(COc3cccc4nc(N)nc(N)c34)CC2)cs1 [D156676]
c. Nc1nc(N)c2c(COc3ccccc3I)cccc2n1 [D153215]
d. Cn1ccnc1CN1CCC(COc2cccc3nc(N)nc(N)c23)CC1 [D157555]
Query: rank_up(items): orders items by reported pEC50 in ascending numerical order. Please respond with the labels ordered as the question requires.
Response: b, a, c, d
(b: 5.60, a: 6.10, c: 6.61, d: 6.97)
